Values compiled from PubChem BioAssay (NCI).

Attribute: TGI
- System: HT29 colon
- ASSAY_SUMMARY: NCI tumour cell line growth inhibition, 48 h
VALUE_TYPE: TGI (µM)

• COC1(C2c3ccccc3CCN2C(=O)OC(C)(C)C)C(=O)C(c2ccccc2)=C1N(C)C (stereo unspecified) = 43.9
• C=CC(C)(C)n1cc(C2=C(O)C(=O)C(c3cn(C(C)(C)C=C)c4ccccc34)=C(O)C2=O)c2ccccc21 = 16.2
• Cc1ccc(O)c(C2=CC3=NNC(=O)C3C(c3cccc(Cl)c3)C2)c1 (stereo unspecified) = 63.9

---

- System: HCT-116 colon
- ASSAY_SUMMARY: NCI tumour cell line growth inhibition, 48 h; in the data active = GI50 below about 0.43 µM; inactive = the rest
Outcomes: true (active), false (inactive)

- COc1ccc(-c2c(C#N)c(N)nc(N3CCOCC3)c2C#N)cc1: false
- Cc1ccc(S(=O)(=O)c2nc(-c3ccccc3)oc2S(C)(=O)=O)cc1: false
- COc1cc([C@@H]2c3cc4c(cc3[C@H](OC(C)=O)[C@H]3COC(=O)[C@@H]23)OCO4)cc(OC)c1OC: true
- CC(=O)OC(C(=O)[O][Sn]([CH3])([CH3])[CH3])c1ccccc1 (stereo unspecified): false
- O=C(CC1(O)C(=O)Nc2ccc(F)cc21)c1ccc(C(=O)NCC2CCC3(CC2)OOC2(CCCCC2)OO3)cc1 (stereo unspecified): false
- C=C1C(=O)O[C@H]2[C@H]1CC/C(Cn1cc(-c3ccc(N)cc3)nn1)=C\CC[C@@]1(C)O[C@@H]21: false
- C=C(CN1CCc2c([nH]c3ccccc23)C1)c1ccc(C(=O)Nc2ccccc2N)cc1: false
- CCCN(CCC)c1ccc(C=O)c(Cl)c1: false
- CCSc1ccc([C@@H]2[C@@H](O)C(=O)N2c2cc(OC)c(OC)c(OC)c2)cc1: true
- Cn1cc(-c2cc(-c3cn(C)c4ccc(Cl)cc34)[nH]n2)c2cc(Cl)ccc21: false
- O=C(Nc1cccc2[nH]c(C(F)(F)F)nc12)c1cc(Cl)ccc1Cl: false
- C/C(=C(/c1ccccc1)c1ccc(OCC(O)CNCCN2CCOCC2)cc1)c1ccccc1 (stereo unspecified): false
- Cc1cc(N/N=C/c2nc(-c3ccc(Cl)cc3)oc2C)c2cc(Br)ccc2n1: false
- COc1cc(OC)c2sc(-c3ccc(-n4cncc4-c4ccc(OC)c(OC)c4)cc3)nc2c1: false
- COc1cc(OCc2cccc(-c3ccccc3)c2C)cc(OC)c1CN1CCCCC1C(=O)NCCOCCOCCN (stereo unspecified): false
- NC(=O)c1cccnc1: false
